Biological target: COX-1 (Homo sapiens, UniProt P23219)
Sequence (P23219 24-599): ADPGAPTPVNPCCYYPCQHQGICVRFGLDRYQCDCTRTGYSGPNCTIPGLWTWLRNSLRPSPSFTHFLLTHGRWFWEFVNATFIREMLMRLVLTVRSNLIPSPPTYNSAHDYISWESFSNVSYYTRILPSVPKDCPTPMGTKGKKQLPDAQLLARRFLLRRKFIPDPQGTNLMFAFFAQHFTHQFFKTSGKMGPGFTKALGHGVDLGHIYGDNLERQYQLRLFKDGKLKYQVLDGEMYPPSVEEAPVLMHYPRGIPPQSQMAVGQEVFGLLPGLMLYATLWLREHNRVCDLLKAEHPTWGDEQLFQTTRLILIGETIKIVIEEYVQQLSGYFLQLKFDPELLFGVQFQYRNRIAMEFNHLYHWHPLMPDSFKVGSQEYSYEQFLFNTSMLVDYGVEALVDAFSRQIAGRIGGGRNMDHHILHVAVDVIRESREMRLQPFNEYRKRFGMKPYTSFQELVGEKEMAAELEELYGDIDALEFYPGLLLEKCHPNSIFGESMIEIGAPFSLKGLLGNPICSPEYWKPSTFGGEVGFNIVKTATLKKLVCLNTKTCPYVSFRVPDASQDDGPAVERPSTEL
# key: entry, value: IC50

Would you please look over these solved cases?
{"molecule": "CCCCc1cc(OC(F)(F)F)cc2c1OC(C(F)(F)F)C(C(=O)O)=C2 (centres unmarked) [Example 21r]", "IC50": "83.8 µM"}
{"molecule": "N#Cc1cc(OC(F)(F)F)cc2c1OC(C(F)(F)F)C(C(=O)O)=C2 (centres unmarked) [Example 21p]", "IC50": "39.2 µM"}

**Query** I am curious: what IC50 value has been reported for COc1cc(Cl)c2c(c1Cl)C=C(C(=O)O)C(C(F)(F)F)O2 (centres unmarked) [Example 18a] ?
**Result** < 0.137 µM

**Query** I am curious: what IC50 value has been reported for CCC#Cc1cc(OC(F)(F)F)cc2c1OC(C(F)(F)F)C(C(=O)O)=C2 (centres unmarked) [Example 21q] ?
**Result** 5.71 µM

---

Biological target: COX-1 (Homo sapiens, UniProt P23219)
quantity measured: IC50

Would you please look over these solved cases?
{"compound": "Cc1cc(Cl)cc2c1NC(C(F)(F)F)C(C(=O)O)=C2 (stereo not drawn)", "quantity measured": "IC50", "result": "> 500 µM"}
{"compound": "CCCCOc1c(Cl)c(Cl)c(Cl)c2c1OC(C(F)(F)F)C(C(=O)O)=C2 (stereo not drawn) [Example 28b]", "quantity measured": "IC50", "result": "41.7 µM"}
{"compound": "NS(=O)(=O)c1ccc(C#Cc2cc(Cl)cc3c2OC(C(F)(F)F)C(C(=O)O)=C3)cc1 (stereo not drawn) [Example 39b]", "quantity measured": "IC50", "result": "3.93 µM"}
{"compound": "CC#Cc1cc(OC(F)(F)F)cc2c1OC(C(F)(F)F)C(C(=O)O)=C2 (stereo not drawn) [Example 21d]", "quantity measured": "IC50", "result": "0.182 µM"}
{"compound": "C=C(c1ccccc1)c1ccc2c(c1)OC(C(F)(F)F)C(C(=O)O)=C2 (stereo not drawn) [Example 37a]", "quantity measured": "IC50", "result": "69.4 µM"}
{"compound": "COCC(C)(C)c1cc2c(cc1Cl)C=C(C(=O)O)C(C(F)(F)F)O2 (stereo not drawn)", "quantity measured": "IC50", "result": "> 100 µM"}
{"compound": "CCCCCCOc1cc(Cl)c2c(c1)C=C(C(=O)O)C(C(F)(F)F)O2 (stereo not drawn) [Example 17e]", "quantity measured": "IC50", "result": "< 0.137 µM"}
{"compound": "O=C(O)C1=Cc2ccc(-c3ccco3)cc2OC1C(F)(F)F (stereo not drawn)", "quantity measured": "IC50", "result": "> 100 µM"}

**Query** I am curious: what IC50 value has been reported for Cc1c(OCC2CC2)c(Cl)cc2c1OC(C(F)(F)F)C(C(=O)O)=C2 (stereo not drawn) ?
**Result** < 0.137 µM

---

quantity measured: melting point

Would you please look over these solved cases?
{"compound": "Cc1ccc(-c2c(Cl)ccc3c2C=C(C(=O)O)C(C(F)(F)F)O3)cc1 (centres unmarked)", "melting point": "218 to 220 °C"}
{"compound": "CC(C)c1cccc(-c2c(Cl)ccc3c2C=C(C(=O)O)C(C(F)(F)F)O3)c1 (centres unmarked)", "melting point": "184 to 186.5 °C"}
{"compound": "O=C(O)C1=Cc2c(ccc3occ(-c4ccc(Br)cc4)c23)OC1C(F)(F)F (centres unmarked)", "melting point": "> 250 °C"}
{"compound": "CCc1ccc(Oc2cc3c(cc2Cl)C=C(C(=O)O)[C@H](C(F)(F)F)O3)cc1 (single isomer, unassigned)", "melting point": "130 to 131 °C"}

**Query** I am curious: what melting point value has been reported for O=C(O)C1=Cc2c(ccc(Cl)c2-c2ccsc2)OC1C(F)(F)F (centres unmarked) ?
**Result** 211 to 213.5 °C

**Query** I am curious: what melting point value has been reported for O=C(O)C1=Cc2cc3occ(-c4ccc(Br)cc4)c3cc2OC1C(F)(F)F (centres unmarked) ?
**Result** > 250 °C

**Query** I am curious: what melting point value has been reported for Cc1cccc(-c2c(Cl)ccc3c2C=C(C(=O)O)C(C(F)(F)F)O3)c1 (centres unmarked) ?
**Result** 222.5 to 224 °C

**Query** I am curious: what melting point value has been reported for CCCc1ccc(Oc2ccc3c(c2)OC(C(F)(F)F)C(C(=O)O)=C3)cc1 (centres unmarked) ?
**Result** 143.5 to 146.5 °C
